Measured on: T1, RlpA-Δ32, fluorescently labeled (P. aeruginosa PAO1, UniProt Q9X6V6 32-342, amine reactive RED-NHS dye)
T1 construct: source: E. coli BL21-star (DE3), purified (Ni-NTA), labelled with RED-NHS dye
T1 sequence: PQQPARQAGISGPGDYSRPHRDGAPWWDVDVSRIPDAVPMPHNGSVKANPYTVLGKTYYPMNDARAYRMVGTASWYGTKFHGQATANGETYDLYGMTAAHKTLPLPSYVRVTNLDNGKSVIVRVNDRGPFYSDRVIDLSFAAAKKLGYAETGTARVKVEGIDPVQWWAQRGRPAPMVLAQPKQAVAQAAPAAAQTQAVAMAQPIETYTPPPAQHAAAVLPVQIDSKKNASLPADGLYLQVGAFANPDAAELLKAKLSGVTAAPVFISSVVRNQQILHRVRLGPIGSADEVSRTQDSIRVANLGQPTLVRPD
Test method notes: MST
Test settings: both partners purified
// Kd lookup, one value per entry
Numbers only; they are read as nM.

| Binder | Unit | Kd |
| --- | --- | --- |
| PA4063 (natural protein, source: E. coli, purified (Ni-NTA or Strep-Tactin)) HDDHDHDHAHGSLGKHEHGVAQLNVALDGKTLELELDSPAMNLVGFEHAASTDADKAAVAKARAQLEKPLELFALPVTAGCSVASQELRSPLFGDKAPAHAHKEKAGHEHEHEHEHEHGHADIHAHYQLSCEKPELLKLLTLAEFFKRFPATQKIQVQLIGPDGQKGADLAPASAELKL | nM | 201 |
| SltB1 (enzyme, P. aeruginosa PAO1, UniProt Q9HX24 1-340, looked up) GDYDGSPQVAEFVSEMTRDYGFAGEQLMGLFRDVNRKQSILDAISRPAERVKQWKEYRPIFISDARISRGVDFWNKHAEDLARAEKEYGVPAEIIVSIIGVETFFGRNTGSYRVMDALSTLGFDYPPRADFFRKELREFLLLAREQQVDPLSLTGSYAGAMGLPQFMPSSFRAYAVDFDGDGHINIWSDPTDAIGSVASYFKQHGWVTGEPVVSVAEINDESAESAVTRGVDPTMSLGELRARGWRTHDALRDDQKVTAMRFVGDKGIEYWVGLPNFYVITRYNRSAMYAMAVYQLAGEIARARGAH | nM | 140 |

query: Look up and state reported Kd for PilO (natural protein, source: E. coli, purified (Ni-NTA or Strep-Tactin)) YNFHLSDMQAQLEQQAAEEETLKQQFSTKAFQAANLEAYKAQMKEMEESFGALLRQLPSDTEVPGLLEDITRTGLGSGLEFEEIKLLPEVAQQFYIELPIQISVVGGYHDLATFVSGVSSLPRIVTLHDFEIKPVAPGSTSKLRMSILAKTYRYNDKGLKK
result: 350
